Data provenance: patent US8895695B2

Item-by-item account of half-life at 10 μM
# assayRemarks: in vitro
# Assay type: in vitro ADME
# details: human, plasma
Bridge positions count the residues as written; N and C are the ends. Square brackets hold non-standard residues; d marks the D form. Peptide text beside a SMILES is read from it. 2Nal = N[C@@H](Cc1ccc2ccccc2c1)C(=O)O; Cit = NC(=O)NCCC[C@H](N)C(=O)O
Numeric only. Scale: h

N=C(N)NCCC[C@@H]1NC(=O)[C@@H]2CSSC[C@H](NC(=O)[C@H](Cc3ccc4ccccc4c3)NC(=O)[C@H](CCCNC(=N)N)NC(=O)[C@H](CCCNC(=N)N)NC(=O)[C@H]3CCCN3C(=O)CNC1=O)C(=O)N[C@@H](Cc1ccc(O)cc1)C(=O)N[C@@H](CCC(N)=O)C(=O)N[C@@H](CCCCN)C(=O)N1CCC[C@@H]1C(=O)N1CCC[C@H]1C(=O)N[C@@H](Cc1ccc(O)cc1)C(=O)N[C@@H](CCCNC(=N)N)C(=O)N[C@@H](CCC(=O)O)C(=O)N2 [Ex. 75] (cyclo(YRECRG[dP]RR[2Nal]CYQK[dP]P); disulfide 4-11) : 3.13

As a next step, examine the compound that follows.
Form field half-life at 10 μM, entry N=C(N)NCCC[C@@H]1NC(=O)[C@@H]2CSSC[C@H](NC(=O)[C@H](Cc3ccc4ccccc4c3)NC(=O)[C@H](CCCNC(=N)N)NC(=O)[C@H](CCCNC(=N)N)NC(=O)[C@H]3CCCN3C(=O)CNC1=O)C(=O)N[C@@H](Cc1ccc(O)cc1)C(=O)N[C@@H](CCC(N)=O)C(=O)N[C@@H](CC(=O)O)C(=O)N1CCC[C@@H]1C(=O)N1CCC[C@H]1C(=O)N[C@@H](Cc1ccc(O)cc1)C(=O)N[C@@H](CCCNC(=N)N)C(=O)N[C@@H](CCCNC(N)=O)C(=O)N2 [Ex. 85] (cyclo(YR[Cit]CRG[dP]RR[2Nal]CYQD[dP]P); disulfide 4-11) : 2.77

----------
# testedSystem: UniProt:P61073
# Sequence (P61073 whole entry): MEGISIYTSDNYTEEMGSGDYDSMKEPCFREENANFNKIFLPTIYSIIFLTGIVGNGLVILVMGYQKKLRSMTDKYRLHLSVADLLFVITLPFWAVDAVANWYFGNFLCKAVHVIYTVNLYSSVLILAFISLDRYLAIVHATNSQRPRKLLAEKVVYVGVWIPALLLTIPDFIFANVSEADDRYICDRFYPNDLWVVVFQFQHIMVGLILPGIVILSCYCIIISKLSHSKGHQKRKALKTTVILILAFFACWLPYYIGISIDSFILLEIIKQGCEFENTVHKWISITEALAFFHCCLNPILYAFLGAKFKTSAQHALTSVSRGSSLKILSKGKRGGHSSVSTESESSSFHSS
# assayRemarks: Ca2+-assay method 2 (Flexstation, SDF-1 induced calcium mobilization)
# Type: cell-based
# Parameters: expressed in transfected cells; host or cells: mouse pre-B cell line 300-19
# details: method 2 (Ex. 54-160), mouse pre-B cell line 300-19 with human CXCR4, 10 nM SDF-1; read-out: IC50 (nM) Ca^2+ assay
Numbered stars: 1 amine (or outer) side, 2 acyl side, 3 side chain; on linkers, the order of the positions; unused ones are H or OH. Bridge positions count the residues as written; N and C are the ends. Square brackets hold non-standard residues; d marks the D form. Peptide text beside a SMILES is read from it. X2 = CN1CCN(CCCN(CC(=O)[*:2])[*:1])CC1; 2Nal = N[C@@H](Cc1ccc2ccccc2c1)C(=O)O; Cit = NC(=O)NCCC[C@H](N)C(=O)O
measurementLabel: IC50 (nM)
Numeric only. Scale: nM

Form field IC50, entry CN1CCN(CCCN2CC(=O)N[C@@H](Cc3ccc4ccccc4c3)C(=O)N[C@H]3CSSC[C@H](NC(=O)[C@H](CCCNC(N)=O)NC(=O)[C@H](CCCNC(=N)N)NC(=O)[C@H](Cc4ccc(O)cc4)NC(=O)[C@@H]4CCCN4C(=O)[C@H]4CCCN4C(=O)[C@H](CCCCN)NC(=O)[C@H](CCCNC(N)=O)NC(=O)[C@H](Cc4ccc(O)cc4)NC3=O)C(=O)N[C@@H](CCCNC(=N)N)C(=O)NCC(=O)N3CCC[C@@H]3C(=O)N[C@@H](CCCNC(=N)N)C2=O)CC1 [Ex. 126] (cyclo(YR[Cit]CRG[dP]R[X2][2Nal]CY[Cit]K[dP]P); disulfide 4-11) : 19.5

Form field IC50, entry N=C(N)NCCC[C@@H]1NC(=O)[C@@H]2CSSC[C@H](NC(=O)[C@H](Cc3ccc4ccccc4c3)NC(=O)[C@H](CCCNC(=N)N)NC(=O)[C@H](CCCNC(=N)N)NC(=O)[C@H]3CCCN3C(=O)CNC1=O)C(=O)N[C@@H](Cc1ccc(O)cc1)C(=O)N[C@@H](CCC(N)=O)C(=O)N[C@@H](CCCCN)C(=O)N1CCC[C@@H]1C(=O)N1CCC[C@H]1C(=O)N[C@@H](Cc1ccc(O)cc1)C(=O)N[C@@H](CCCNC(=N)N)C(=O)N[C@@H](CCC(=O)O)C(=O)N2 [Ex. 75] (cyclo(YRECRG[dP]RR[2Nal]CYQK[dP]P); disulfide 4-11) : 3.5

----------
Item-by-item account of Hemolysis at 100 μM
# Test system: human red blood cells (hRBC)
# assayRemarks: Hemolysis
# Assay type: cell-based
Bridge positions count the residues as written; N and C are the ends. Square brackets hold non-standard residues; d marks the D form. Peptide text beside a SMILES is read from it. 2Nal = N[C@@H](Cc1ccc2ccccc2c1)C(=O)O; Cit = NC(=O)NCCC[C@H](N)C(=O)O
The reply should consist of the numeric value with the unit placed after it.

N=C(N)NCCC[C@@H]1NC(=O)[C@@H]2CSSC[C@H](NC(=O)[C@H](Cc3ccc4ccccc4c3)NC(=O)[C@H](CCCNC(=N)N)NC(=O)[C@H](CCCNC(=N)N)NC(=O)[C@H]3CCCN3C(=O)CNC1=O)C(=O)N[C@@H](Cc1ccc(O)cc1)C(=O)N[C@@H](CCC(N)=O)C(=O)N[C@@H](CCCCN)C(=O)N1CCC[C@@H]1C(=O)N1CCC[C@H]1C(=O)N[C@@H](CO)C(=O)N[C@@H](CCCNC(=N)N)C(=O)N[C@@H](CCCNC(N)=O)C(=O)N2 [Ex. 89] (cyclo(SR[Cit]CRG[dP]RR[2Nal]CYQK[dP]P); disulfide 4-11) : 0%

Form field Hemolysis at 100 μM, entry C[C@@H](O)[C@@H]1NC(=O)[C@H](CCCNC(=N)N)NC(=O)[C@H](Cc2ccc(O)cc2)NC(=O)[C@@H]2CCCN2C(=O)[C@H]2CCCN2C(=O)[C@H](CCCCN)NC(=O)[C@H](CCC(N)=O)NC(=O)[C@H](Cc2ccc(O)cc2)NC(=O)[C@@H]2CSSC[C@H](NC1=O)C(=O)N[C@@H](CCCNC(=N)N)C(=O)NCC(=O)N1CCC[C@@H]1C(=O)N[C@@H](CCCNC(=N)N)C(=O)N[C@@H](CCCNC(=N)N)C(=O)N[C@@H](Cc1ccc(O)cc1)C(=O)N2 [Ex. 145] (cyclo(YRTCRG[dP]RRYCYQK[dP]P); disulfide 4-11) : 0%

Form field Hemolysis at 100 μM, entry N=C(N)NCCC[C@@H]1NC(=O)[C@@H]2CSSC[C@H](NC(=O)[C@H](Cc3c[nH]c4ccccc34)NC(=O)[C@H](CCCNC(=N)N)NC(=O)[C@H](CCCNC(=N)N)NC(=O)[C@H]3CCCN3C(=O)CNC1=O)C(=O)N[C@@H](Cc1ccc(O)cc1)C(=O)N[C@@H](CCCNC(N)=O)C(=O)N[C@@H](CCCCN)C(=O)N1CCC[C@@H]1C(=O)N1CCC[C@H]1C(=O)N[C@@H](Cc1ccc(O)cc1)C(=O)N[C@@H](CCCNC(=N)N)C(=O)N[C@@H](CCCNC(N)=O)C(=O)N2 [Ex. 123] (cyclo(YR[Cit]CRG[dP]RRWCY[Cit]K[dP]P); disulfide 4-11) : 0%

Form field Hemolysis at 100 μM, entry N=C(N)NCCC[C@@H]1NC(=O)[C@@H]2CSSC[C@H](NC(=O)[C@H](Cc3ccc(O)cc3)NC(=O)[C@H](CCCNC(=N)N)NC(=O)[C@H](CCCNC(=N)N)NC(=O)[C@H]3CCCN3C(=O)CNC1=O)C(=O)N[C@@H](Cc1ccc(O)cc1)C(=O)N[C@@H](CCC(N)=O)C(=O)N[C@@H](CCCCN)C(=O)N1CCC[C@@H]1C(=O)N1CCC[C@H]1C(=O)N[C@@H](Cc1ccc(O)cc1)C(=O)N[C@@H](CCCNC(=N)N)C(=O)N[C@@H](Cc1ccc(O)cc1)C(=O)N2 [Ex. 148] (cyclo(YRYCRG[dP]RRYCYQK[dP]P); disulfide 4-11) : 71%

Form field Hemolysis at 100 μM, entry CN1CC(=O)N[C@@H](CCCCN)C(=O)N2CCC[C@@H]2C(=O)N2CCC[C@H]2C(=O)N[C@@H](Cc2ccc(O)cc2)C(=O)N[C@@H](CCCNC(=N)N)C(=O)N[C@@H](CCCNC(N)=O)C(=O)N[C@H]2CSSC[C@H](NC(=O)[C@H](Cc3ccc4ccccc4c3)NC(=O)[C@H](CCCNC(=N)N)NC(=O)[C@H](CCCNC(=N)N)NC(=O)[C@H]3CCCN3C(=O)CNC(=O)[C@H](CCCNC(=N)N)NC2=O)C(=O)N[C@@H](Cc2ccc(O)cc2)C1=O : 0%

Form field Hemolysis at 100 μM, entry N=C(N)NCCC[C@@H]1NC(=O)[C@@H]2CSSC[C@H](NC(=O)[C@H](Cc3c[nH]c4ccccc34)NC(=O)[C@H](CCCNC(=N)N)NC(=O)[C@H](CCCNC(=N)N)NC(=O)[C@H]3CCCN3C(=O)CNC1=O)C(=O)N[C@@H](Cc1ccc(O)cc1)C(=O)N[C@@H](CCCNC(N)=O)C(=O)N[C@@H](CCC(N)=O)C(=O)N1CCC[C@@H]1C(=O)N1CCC[C@H]1C(=O)N[C@@H](Cc1ccc(O)cc1)C(=O)N[C@@H](CCCNC(=N)N)C(=O)N[C@@H](CCCNC(N)=O)C(=O)N2 [Ex. 121] (cyclo(YR[Cit]CRG[dP]RRWCY[Cit]Q[dP]P); disulfide 4-11) : 0%

Form field Hemolysis at 100 μM, entry N=C(N)NCCC[C@@H]1NC(=O)[C@@H]2CSSC[C@H](NC(=O)[C@H](Cc3c[nH]c4ccccc34)NC(=O)[C@H](CCCNC(=N)N)NC(=O)[C@H](CCCNC(N)=O)NC(=O)[C@H]3CCCN3C(=O)CNC1=O)C(=O)N[C@@H](Cc1ccc(O)cc1)C(=O)N[C@@H](CCCNC(N)=O)C(=O)N[C@@H](CCCCN)C(=O)N1CCC[C@@H]1C(=O)N1CCC[C@H]1C(=O)N[C@@H](Cc1ccc(O)cc1)C(=O)N[C@@H](CCCNC(=N)N)C(=O)N[C@@H](CCCNC(N)=O)C(=O)N2 [Ex. 136] (cyclo(YR[Cit]CRG[dP][Cit]RWCY[Cit]K[dP]P); disulfide 4-11) : 0%

Form field Hemolysis at 100 μM, entry N=C(N)NCCC[C@@H]1NC(=O)[C@@H]2CSSC[C@H](NC(=O)[C@H](Cc3ccc4ccccc4c3)NC(=O)[C@H](CCCNC(=N)N)NC(=O)[C@H](CCCNC(=N)N)NC(=O)[C@H]3CCCN3C(=O)CNC1=O)C(=O)N[C@@H](Cc1ccc(O)cc1)C(=O)N[C@@H](CCC(N)=O)C(=O)N[C@@H](CCCCN)C(=O)N1CCC[C@@H]1C(=O)N1CCC[C@H]1C(=O)N[C@@H](CCCNC(=N)N)C(=O)N[C@@H](CCCNC(=N)N)C(=O)N[C@@H](CCCNC(N)=O)C(=O)N2 [compound 63] (cyclo(RR[Cit]CRG[dP]RR[2Nal]CYQK[dP]P); disulfide 4-11) : 0.2%
